# assay.details: Metabolic stability in human liver microsomes assessed as compound remaining after 30 mins
# Format: ADME, Microsome
# condition: read-out: Stability
In plain terms, low remaining at 0.5 h, meaning strictly below 80%, gives TRUE, and everything else gives FALSE.

CCCS(=O)(=O)c1ccc2[nH]c(N3CCC(c4ccccc4)C3)nc2c1 (centres undefined) | TRUE
CCS(=O)(=O)c1ccc2[nH]c(N3CCOC(c4ccc(C)cc4)C3)nc2c1 (centres undefined) | FALSE
CCCS(=O)(=O)c1ccc2[nH]c(N3CCNC(c4ccccc4)C3)nc2c1 (centres undefined) | TRUE
CC(C)CS(=O)(=O)c1ccc2[nH]c(N3CCOC(c4ccccc4)C3)nc2c1 (centres undefined) | TRUE
CCS(=O)(=O)c1ccc2[nH]c(N3CCOC(c4ccc(F)cc4)C3)nc2c1 (centres undefined) | FALSE

q: Threshold test, remaining at 0.5 h < 80%: CCS(=O)(=O)c1ccc2nc(N3CCOC(c4ccccc4)C3)[nH]c2c1 (centres undefined)
a: FALSE

q: A record lists O=S(=O)(CC(F)(F)F)c1ccc2[nH]c(N3CCOC(c4ccccc4)C3)nc2c1 (centres undefined) . Is its remaining at 0.5 h below 80%?
a: FALSE

q: Below 80% on remaining at 0.5 h? Entry CC(C)S(=O)(=O)c1ccc2nc(N3CCOC(c4ccccc4)C3)[nH]c2c1 (centres undefined)
a: FALSE

q: Item CCCS(=O)(=O)c1ccc2[nH]c(C3CCOC(c4ccccc4)C3)nc2c1 (mixture of isomers) : remaining at 0.5 h beneath 80%, strictly?
a: TRUE
